STUDY TARGET: T1, Recombinant hIL-21-Fc (AcroBiosystems) (human, UniProt Q9HBE4 30-162)
T1 construct: bought; also called rhIL-21; not shown: Fc of the bought reagent, not described
T1 sequence (Q9HBE4 30-162): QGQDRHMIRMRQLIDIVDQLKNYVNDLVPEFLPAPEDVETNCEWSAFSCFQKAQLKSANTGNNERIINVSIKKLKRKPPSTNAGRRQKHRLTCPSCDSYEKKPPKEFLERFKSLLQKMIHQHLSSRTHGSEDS
RUN DESCRIPTION: SPR, Fab on captured rhIL-21-Fc
Listed here: items and their measured Kd.
MEASUREMENT NAME: Kd (nM)

BINDER | MEASUREMENT NAME | UNIT LABEL | QUANTITATIVE READOUT
ZAP122m18 Fab (Fab, V domains shown, Fab; also called clone m18) VH: QVQLQESGPGLVKPSETLSLTCTVSGGSISSDFWGWIRQPPGKGLEWIGYISSRGSTNYNPSLKSRVTISVDTSRNQFSLKLSSVTAADTAVYYCARSAGVTDFDFWGQGTLVTVSS VL: DIQMTQSPSSVSASVGDRVTITCRASQGISSWLAWYQHKPGKAPKLLIYVASSLQSGVPSRFSGSGSGTDFTLTISSLQPEDFATYYCQQANSFPLTFGGGTKVEIK | Kd | nM | 0.0463
ZAP122m17 Fab (Fab, V domains shown, Fab; also called clone m17) VH: QVQLQESGPGLVKPSETLSLTCTVSGGSISSDFWGWIRQPPGKGLEWIGYISSSGSTNYNPSLKRRVTISVDTSRNQFSLKLSSVTAADTAVYYCARSAGVTDFDFWGQGTLVTVSS VL: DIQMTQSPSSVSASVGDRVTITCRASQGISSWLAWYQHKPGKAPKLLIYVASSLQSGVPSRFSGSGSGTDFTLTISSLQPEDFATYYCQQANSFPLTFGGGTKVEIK | Kd | nM | 0.0842
